assay: Elacridar plasma and brain exposure, constant infusion in rats; assay type: in vivo, Sprague Dawley rats; conditions: Sprague Dawley, rat, brain, intravenous, 8.9 mg/hr/kg, total drug in brain, elacridar 8.9 mg/hr/kg constant infusion
reported endpoint: concentration at 4 h

Which concentration at 4 h is reported for this compound? `COc1cc2c(cc1OC)CN(CCc1ccc(NC(=O)c3cccc4c(=O)c5cccc(OC)c5[nH]c34)cc1)CC2`
> 45000 ng/g

###

assay: Elacridar plasma and brain exposure, constant infusion in rats; format: in vivo, Sprague Dawley rats; settings: Sprague Dawley, rat, plasma, intravenous, free plasma exposure, range over doses, 0.009 to 8.9 mg/hr/kg constant infusion, 1.5% rat plasma free fraction
reported endpoint: concentration at 4 h

Which concentration at 4 h is reported for this compound? COc1cc2c(cc1OC)CN(CCc1ccc(NC(=O)c3cccc4c(=O)c5cccc(OC)c5[nH]c34)cc1)CC2 [elacridar]
0.025 to 49 ng/mL
